Value source: DBAASP

Test system: Escherichia coli UB1005
Assay Explanation: ≥ marks a high value that may be exact or a test limit, other limits are often not marked, values filed in µg/mL are converted to µM
Observable: MIC (µM)

• CC(C)C[C@H](NC(=O)[C@H](CCCN=C(N)N)NC(=O)[C@H](Cc1c[nH]c2ccccc12)NC(=O)[C@H](CCCN=C(N)N)NC(=O)[C@@H](NC(=O)[C@H](Cc1c[nH]c2ccccc12)NC(=O)[C@H](Cc1c[nH]c2ccccc12)NC(=O)[C@H](CCCN=C(N)N)NC(=O)[C@H](CC(C)C)NC(=O)[C@H](CCCN=C(N)N)NC(=O)[C@@H](N)CCCN=C(N)N)[C@@H](C)O)C(=O)N[C@@H](CCCCN)C(N)=O [RRLRWWTRWRLK] = 4
• NCCCC[C@H](N)C(=O)N[C@@H](CCCN=C(N)N)C(=O)N[C@@H](Cc1c[nH]c2ccccc12)C(=O)N[C@@H](Cc1c[nH]c2ccccc12)C(=O)N[C@@H](Cc1c[nH]c2ccccc12)C(=O)N[C@@H](Cc1c[nH]c2ccccc12)C(=O)N[C@@H](CCCN=C(N)N)C(=O)N[C@@H](Cc1ccccc1)C(=O)N[C@@H](CCCN=C(N)N)C(=O)O [KRWWWWRFR] = 2.9
• CC(C)[C@H](NC(=O)[C@H](CCCN=C(N)N)NC(=O)[C@H](Cc1c[nH]c2ccccc12)NC(=O)[C@H](CCCN=C(N)N)NC(=O)[C@H](Cc1c[nH]c2ccccc12)NC(=O)[C@H](Cc1c[nH]c2ccccc12)NC(=O)[C@H](Cc1c[nH]c2ccccc12)NC(=O)[C@H](CCCN=C(N)N)NC(=O)[C@H](Cc1c[nH]c2ccccc12)NC(=O)[C@H](CCCN=C(N)N)NC(=O)CN)C(N)=O [GRWRWWWRWRV] = 2
• CC[C@H](C)[C@H](NC(=O)[C@H](CCCN=C(N)N)NC(=O)[C@H](CS)NC(=O)[C@H](CC(C)C)NC(=O)[C@@H](N)CCCN=C(N)N)C(=O)N[C@H](C(=O)N1CCC[C@H]1C(=O)N[C@H](C(=O)N[C@H](C(=O)N[C@@H](CCCN=C(N)N)C(=O)N[C@H](C(=O)N[C@@H](CS)C(=O)N[C@@H](CCCN=C(N)N)C(=O)O)C(C)C)[C@@H](C)CC)C(C)C)C(C)C [RLCRIVPVIRVCR] = 10.1

----------
Consider molecules characterized by their MIC with Candida parapsilosis CGMCC 2.3989.
Observable: MIC (µM)

• CC[C@H](C)[C@H](NC(=O)[C@H](CCCN=C(N)N)NC(=O)[C@H](C)NC(=O)[C@H](C)N)C(=O)N[C@H](C(=O)N[C@@H](CC(C)C)C(=O)N[C@@H](CCCN=C(N)N)C(=O)N[C@@H](C)C(=O)N[C@@H](CCCN=C(N)N)C(=O)N[C@@H](Cc1ccccc1)C(=O)N[C@@H](CCCN=C(N)N)C(N)=O)[C@@H](C)CC [AARIILRARFR] = 16
• NC(=O)[C@H](CCCN=C(N)N)NC(=O)[C@H](Cc1c[nH]c2ccccc12)NC(=O)[C@H](Cc1c[nH]c2ccccc12)NC(=O)[C@H](CCCN=C(N)N)NC(=O)[C@H](CCCN=C(N)N)NC(=O)[C@H](Cc1c[nH]c2ccccc12)NC(=O)[C@H](CCCN=C(N)N)NC(=O)[C@H](CCCN=C(N)N)NC(=O)[C@H](Cc1c[nH]c2ccccc12)NC(=O)[C@H](Cc1c[nH]c2ccccc12)NC(=O)[C@@H](N)CCCN=C(N)N [RWWRRWRRWWR] = 16
• CC[C@H](C)[C@H](NC(=O)CNC(=O)[C@H](CCCCN)NC(=O)[C@H](Cc1c[nH]c2ccccc12)NC(=O)[C@H](CC(C)C)NC(=O)[C@H](CC(C)C)NC(=O)[C@H](Cc1c[nH]c2ccccc12)NC(=O)[C@H](CCCCN)NC(=O)CNC(=O)[C@@H](NC(=O)[C@@H](N)CCCCN)[C@@H](C)CC)C(=O)N[C@@H](CCCCN)C(=O)N[C@@H](CCCCN)C(=O)N[C@H](C(=O)NCC(=O)N[C@@H](CCCCN)C(=O)N[C@@H](Cc1c[nH]c2ccccc12)C(=O)N[C@@H](CC(C)C)C(N)=O)[C@@H](C)CC [KIGKWLLWKGIKKIGKWL] = 8
• CC[C@H](C)[C@H](NC(=O)[C@H](CCCN=C(N)N)NC(=O)[C@H](CC(C)C)NC(=O)[C@@H](NC(=O)[C@@H](NC(=O)[C@H](CCCN=C(N)N)NC(=O)[C@H](C)NC(=O)[C@H](C)N)[C@@H](C)CC)[C@@H](C)CC)C(=O)N[C@@H](CCCN=C(N)N)C(=O)N[C@@H](Cc1ccccc1)C(=O)N[C@@H](CCCN=C(N)N)C(N)=O [AARIILRIRFR] = 4
